The entries below come with measured TGI values attached.
# Test system: MALME-3M melanoma
# MEASUREMENT_PROTOCOL: NCI tumour cell line growth inhibition, 48 h

[
  {
    "MOLECULE": "O=c1[nH]cnc2c1nnn2C1OC(CO)C(O)C1O (centres undefined)",
    "SYSTEM": "MALME-3M melanoma",
    "TGI": "> 59 µM"
  },
  {
    "MOLECULE": "COc1cc2c(cc1OCCCOC1=C=C=C(c3ccc4c(c3)c3cc(-c5ccc(OCCCOc6cc7c(cc6OC)C(=O)N6CCC[C@H]6C=N7)cc5)ccc3n4S(=O)(=O)c3ccc(C)cc3)C=C1)N=C[C@@H]1CCCN1C2=O",
    "SYSTEM": "MALME-3M melanoma",
    "TGI": "10.2 µM"
  },
  {
    "MOLECULE": "ON(CCc1ccncc1)Cc1ccccc1",
    "SYSTEM": "MALME-3M melanoma",
    "TGI": "> 100 µM"
  },
  {
    "MOLECULE": "CC(=O)NC1=C(C)C(=O)c2c(nc3n2CCC3O)C1=O (centres undefined)",
    "SYSTEM": "MALME-3M melanoma",
    "TGI": "37.5 µM"
  },
  {
    "MOLECULE": "O=c1[nH]c2cc3cccnc3c(Cl)c2nc1C(F)(F)F",
    "SYSTEM": "MALME-3M melanoma",
    "TGI": "> 100 µM"
  },
  {
    "MOLECULE": "Nc1ccc(N=Nc2ccccc2)c(N)n1",
    "SYSTEM": "MALME-3M melanoma",
    "TGI": "> 100 µM"
  },
  {
    "MOLECULE": "CC(=O)NC1C(OCc2ccccc2)OC(CO)C(O)C1OCC(=O)NC(C)C(=O)NC(CCC(=O)NCCCCCNc1c2ccccc2nc2cccc([N+](=O)[O-])c12)C(N)=O (centres undefined)",
    "SYSTEM": "MALME-3M melanoma",
    "TGI": "< 0.0001 µM"
  },
  {
    "MOLECULE": "O=C1C=C2CO[C@H]3OC[C@H](O)[C@@H]1[C@@H]23",
    "SYSTEM": "MALME-3M melanoma",
    "TGI": "55 µM"
  },
  {
    "MOLECULE": "CCNc1c(C(=O)N(CC)CC)c(=O)[nH]c2ncccc12",
    "SYSTEM": "MALME-3M melanoma",
    "TGI": "> 100 µM"
  }
]

The measured values listed here are drawn from PubChem BioAssay (NCI).
